TARGET: Adenosine receptor A1 (Homo sapiens)
Sequence (P30542 whole entry): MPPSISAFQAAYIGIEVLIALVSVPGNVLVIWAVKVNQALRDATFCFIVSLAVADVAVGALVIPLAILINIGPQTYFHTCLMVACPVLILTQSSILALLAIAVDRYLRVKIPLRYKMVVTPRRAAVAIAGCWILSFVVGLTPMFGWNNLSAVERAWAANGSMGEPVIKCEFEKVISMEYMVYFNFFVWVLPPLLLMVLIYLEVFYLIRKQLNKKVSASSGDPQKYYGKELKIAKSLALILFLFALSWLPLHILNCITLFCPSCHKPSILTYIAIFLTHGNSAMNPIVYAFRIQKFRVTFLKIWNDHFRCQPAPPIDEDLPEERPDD
TEST_DETAILS: Displacement of [125I]ABA from human recombinant adenosine A1 receptor by rapid filtration technique
pKi: −log10 of the molar value.
Please enter y where pKi is greater than or equal to 7, and n where it is lower.

[
  {
    "STRUCTURE": "CC1(C)NC(C)(C)c2cc(Nc3ncnc4c3ncn4[C@@H]3O[C@H](CO)[C@@H](O)[C@H]3O)ccc21",
    "TARGET": "Adenosine receptor A1 (Homo sapiens)",
    "LABEL_CLASS": "n"
  },
  {
    "STRUCTURE": "CNC(=O)[C@H]1O[C@@H](n2cnc3c(Nc4ccc(CCNC(=O)c5cc(C(C)(C)C)c(O)c(C(C)(C)C)c5)cc4)ncnc32)[C@H](O)[C@@H]1O",
    "TARGET": "Adenosine receptor A1 (Homo sapiens)",
    "LABEL_CLASS": "n"
  },
  {
    "STRUCTURE": "CNC(=O)[C@H]1O[C@@H](n2cnc3c(NCc4ccc(NC(=O)CCC(=O)NCCc5cc(C(C)(C)C)c(O)c(C(C)(C)C)c5)cc4)ncnc32)[C@H](O)[C@@H]1O",
    "TARGET": "Adenosine receptor A1 (Homo sapiens)",
    "LABEL_CLASS": "y"
  },
  {
    "STRUCTURE": "CNC(=O)[C@H]1O[C@@H](n2cnc3c(NCc4ccc5c(c4)C(C)(C)N([O])C5(C)C)ncnc32)[C@H](O)[C@@H]1O",
    "TARGET": "Adenosine receptor A1 (Homo sapiens)",
    "LABEL_CLASS": "n"
  }
]

---

TARGET: Adenosine receptor A3 (Homo sapiens)
Sequence (P0DMS8 whole entry): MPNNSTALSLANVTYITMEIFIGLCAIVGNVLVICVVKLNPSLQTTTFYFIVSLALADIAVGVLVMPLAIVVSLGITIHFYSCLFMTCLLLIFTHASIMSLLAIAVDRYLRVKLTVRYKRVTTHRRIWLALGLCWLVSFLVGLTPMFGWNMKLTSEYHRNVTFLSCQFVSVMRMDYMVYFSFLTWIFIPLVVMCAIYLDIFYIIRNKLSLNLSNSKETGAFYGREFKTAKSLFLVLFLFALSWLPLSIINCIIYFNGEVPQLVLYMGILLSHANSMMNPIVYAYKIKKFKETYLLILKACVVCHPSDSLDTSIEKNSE
TEST_DETAILS: Displacement of [125I]ABA from human recombinant adenosine A3 receptor by rapid filtration technique
Attribute: Ki

[
  {
    "COMPOUND": "CNC(=O)[C@H]1O[C@@H](n2cnc3c(NCc4ccc(CNC(=O)c5cc(OC)c(OC)c(OC)c5)cc4)ncnc32)[C@H](O)[C@@H]1O",
    "Ki": "5.04 nM"
  },
  {
    "COMPOUND": "CC1(C)CC(NC2NC=Nc3c2ncn3[C@@H]2O[C@H](CO)[C@@H](O)[C@H]2O)CC(C)(C)N1[O] (some centres not stated)",
    "Ki": "8560 nM"
  },
  {
    "COMPOUND": "CNC(=O)[C@H]1O[C@@H](n2cnc3c(Nc4ccc(CCNC(=O)c5ccc6c(c5)C(C)(C)N([O])C6(C)C)cc4)ncnc32)[C@H](O)[C@@H]1O",
    "Ki": "25 nM"
  },
  {
    "COMPOUND": "CNC(=O)[C@H]1O[C@@H](n2cnc3c(NCc4ccc(NC(=O)CCC(=O)NCCc5cc(C(C)(C)C)c(O)c(C(C)(C)C)c5)cc4)ncnc32)[C@H](O)[C@@H]1O",
    "Ki": "2.22 nM"
  },
  {
    "COMPOUND": "CNC(=O)[C@H]1O[C@@H](n2cnc3c(NCCc4cc(C(C)(C)C)c(O)c(C(C)(C)C)c4)ncnc32)[C@H](O)[C@@H]1O",
    "Ki": "9 nM"
  },
  {
    "COMPOUND": "CNC(=O)[C@H]1O[C@@H](n2cnc3c(NCc4ccc(CNC(=O)c5cc(C(C)(C)C)cc(C(C)(C)C)c5)cc4)ncnc32)[C@H](O)[C@@H]1O",
    "Ki": "9.02 nM"
  },
  {
    "COMPOUND": "CC(C)(C)c1cc(CCNc2ncnc3c2ncn3[C@@H]2O[C@H](CO)[C@@H](O)[C@H]2O)cc(C(C)(C)C)c1O",
    "Ki": "30 nM"
  }
]
